Assay: amyloid nucleation score (Sup35N fusion, yeast selection) (log enrichment); library NNK3; higher = more nucleation; inactive = no reads after selection;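 also: zero at mode of non-aggregating sequences after 7 days selection at 30°C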
endpoint_label: amyloid nucleation score

Use these answered entries as a reference point.
Quickly give me recorded amyloid nucleation score for RMRSGSA
inactive

Quickly give me recorded amyloid nucleation score for AAISVFCEVFK
inactive

Quickly give me recorded amyloid nucleation score for SRSSWGPSAIPYYKKLFMLF
inactive

Quickly give me recorded amyloid nucleation score for TFSASAVFTYDKGAPPLLEG
0.999

Quickly give me recorded amyloid nucleation score for GVFVEIRILYKGKWYTCMSK
inactive

Quickly give me recorded amyloid nucleation score for ANECDGVYNGAKCSRWNFLL
inactive

Continuing:
Quickly give me recorded amyloid nucleation score for WVRSFMSLCFW
0.974

Quickly give me recorded amyloid nucleation score for WIYGYAVSLRSLYGLNLSM
inactive

Quickly give me recorded amyloid nucleation score for TLFQDSLLYVSWRSES
0.118

Quickly give me recorded amyloid nucleation score for RSFLIRFILDLVYIRRTRNV
-0.273

Quickly give me recorded amyloid nucleation score for SYRKEFSVPMATGDDSTPQH
inactive

====

Experiment: amyloid nucleation score (Sup35N fusion, yeast selection) (log enrichment); library NNK1; higher = more nucleation; inactive = no reads after selection
endpoint_label: amyloid nucleation score
// print number alone

Use these answered entries as a reference point.
Quickly give me recorded amyloid nucleation score for NDRCFIGPWRSSRPGDFSGH
-0.043

Quickly give me recorded amyloid nucleation score for VTSLYQDVT
-2.31

Turning now to a further sequence:
Quickly give me recorded amyloid nucleation score for SGYTGDDFQLKVEG
-0.307

====

Test: amyloid nucleation score (Sup35N fusion, yeast selection) (log enrichment); library NNK1; higher = more nucleation; inactive = no reads after selection
Outcome: 1 for amyloid nucleation score of at least 0.5; 0 for anything lower.

Entry YCPNLYVVDGCFVLNSKLIL : is its amyloid nucleation score no less than 0.5?
1

Entry TFSDSLKNLQVMVHYSWVVG : is its amyloid nucleation score no less than 0.5?
0

Entry DPAYEQGGLFEVGTIHCNIK : is its amyloid nucleation score no less than 0.5?
1

====

Assay: amyloid nucleation score (Sup35N fusion, yeast selection) (log enrichment); library NNK3; higher = more nucleation; inactive = no reads after selection
endpoint_label: amyloid nucleation score

Quickly give me recorded amyloid nucleation score for FFRQQKYSVCLFGGTFIWVV
inactive

Quickly give me recorded amyloid nucleation score for MKLEEELSYRFRRSWFYALW
inactive

Quickly give me recorded amyloid nucleation score for IVRRGLKMCG
inactive

Quickly give me recorded amyloid nucleation score for SMRSGVLGHIIQTM
inactive

Quickly give me recorded amyloid nucleation score for EGHLIHEYTQTRFVLEVSVK
inactive

Continuing:
Quickly give me recorded amyloid nucleation score for WEDMVDNHE
1.32

Quickly give me recorded amyloid nucleation score for QVCYFYIIVLVLD
inactive

Quickly give me recorded amyloid nucleation score for MGGELCY
inactive

Quickly give me recorded amyloid nucleation score for MCQKQHQYQVTAIRTYMIRF
inactive

Quickly give me recorded amyloid nucleation score for LRSWPVLHSAISTND
inactive

Quickly give me recorded amyloid nucleation score for SSWYSRAPWLRVEMRRKWYM
0.025

Quickly give me recorded amyloid nucleation score for TIKYVDRPARTGGEALAIVV
-0.323

Quickly give me recorded amyloid nucleation score for QIQGAGHGM
0.534

Quickly give me recorded amyloid nucleation score for CNISERENALETHTMNKFVV
inactive

Quickly give me recorded amyloid nucleation score for TKWANR
inactive

Quickly give me recorded amyloid nucleation score for FYTFYSHLNELLHL
-0.009

Quickly give me recorded amyloid nucleation score for LLLIGINVKMFWSFRVWLCN
inactive

Quickly give me recorded amyloid nucleation score for SLYRWYVQMRGIR
inactive

Quickly give me recorded amyloid nucleation score for WIRYTFYQNFRIL
-0.744

Quickly give me recorded amyloid nucleation score for SRLDALLMKLCFVICLRILK
inactive

Quickly give me recorded amyloid nucleation score for FFLTLGYVVGYQRWSYILWR
inactive

Quickly give me recorded amyloid nucleation score for LHTPIMRNYR
inactive

Quickly give me recorded amyloid nucleation score for MYQSLAYFASDLRIHWHMRK
0.729

Quickly give me recorded amyloid nucleation score for MFSSLV
inactive
